meta.source: patent US20220040297A1

test-target: T1, CD3ε homodimer protein (human, UniProt P07766 23-126, limits assumed, sulfo-tag or biotin label in some ECL assays)
T1 construct: also called human CD3ε homodimer protein; CD3 (CD3ε)
T1 sequence (P07766 23-126 limits assumed): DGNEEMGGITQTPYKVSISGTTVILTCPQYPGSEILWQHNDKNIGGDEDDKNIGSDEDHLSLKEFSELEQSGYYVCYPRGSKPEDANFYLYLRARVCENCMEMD
assay-details: SPR, CD3ε homodimer on chip;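 also: biacore SPR with antibody variants flowed as analyte over amine-coupled CD3ε homodimer on a CM chip, bound amount of each single-residue H chain variant over that of parent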

binder | ratio of amounts bound vs CE115HA000
CE115HA000 H35Q (antibody, name in Kabat numbering, V domains shown) VH: QVQLVESGGGVVQPGRSLRLSCAASGFTFSNAWMQWVRQAPGKGLEWVAQIKAKSNNYATYYAESVKGRFTISRDDSKNSLYLQMNSLKTEDTAVYYCRYVHYGAYYGVDAWGQGTTVTVSS VL: DIVMTQSPLSLPVTPGEPASISCRSSQSLVHSNRNTYLHWYQQKPGQAPRLLIYKVSNRFSGVPDRFSGSGSGTDFTLKISRVEAEDVGVYYCGQGTQVPYTFGQGTKLEIK | 0.13
CE115HA000 H35F (antibody, name in Kabat numbering, V domains shown) VH: QVQLVESGGGVVQPGRSLRLSCAASGFTFSNAWMFWVRQAPGKGLEWVAQIKAKSNNYATYYAESVKGRFTISRDDSKNSLYLQMNSLKTEDTAVYYCRYVHYGAYYGVDAWGQGTTVTVSS VL: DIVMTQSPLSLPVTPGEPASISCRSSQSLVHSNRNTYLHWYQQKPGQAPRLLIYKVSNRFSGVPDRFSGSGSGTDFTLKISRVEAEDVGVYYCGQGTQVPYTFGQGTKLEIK | 0.21
CE115HA000 V11L (antibody, name in Kabat numbering, V domains shown) VH: QVQLVESGGGLVQPGRSLRLSCAASGFTFSNAWMHWVRQAPGKGLEWVAQIKAKSNNYATYYAESVKGRFTISRDDSKNSLYLQMNSLKTEDTAVYYCRYVHYGAYYGVDAWGQGTTVTVSS VL: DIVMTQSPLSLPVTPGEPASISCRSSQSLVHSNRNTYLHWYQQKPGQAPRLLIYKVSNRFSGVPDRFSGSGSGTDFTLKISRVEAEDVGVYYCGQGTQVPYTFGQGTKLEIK | 1
